experiment: chemical genetic growth profiling, strain panel (AID 1159580);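 also: tested at 20 µM; growth read once vehicle control cultures reached saturation at 30 °C; 1 = growth at the plate median or of vehicle wells; lower values mean less growth of the strain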; details: S. cerevisiae deletion strains, growth OD, locus YGR252W, strain gcn5, active compounds read low
Screen size: about 5,500 compounds; about 2,000 (36%) were called active. Roughly 18% stayed inconclusive and do not appear here. The list shows a part of the results.
// reported normalized growth for each item listed
Give the value as a plain number.

stdin: Provide only the value of recorded normalized growth for CC(C)(C)NCC(O)COc1cccc2c1C[C@H](O)[C@H](O)C2 (some centres undefined)
stdout: 0.986

----------
test: chemical genetic growth profiling, strain panel (AID 1159580);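 also: tested at 20 µM; growth read once vehicle control cultures reached saturation at 30 °C; 1 = growth at the plate median or of vehicle wells; lower values mean less growth of the strain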; conditions: S. cerevisiae deletion strains, growth OD, locus YLR262C, strain YPT6, active compounds read low
The whole screen tested about 5,500 compounds, of which about 2,000 (36%) were called active. Inconclusive results (about 18%) are left out. Some of the results follow.
MEASURE: normalized growth
Give the value as a plain number.

Completed entries (count: 8):
COMPOUND	ASSAY VALUE
COc1cc(C(=O)N2CCOCC2)cc(OC)c1OC	1.06
C[C@H]1OC(O[C@H]2[C@@H](O)CC(O[C@H]3[C@@H](O)C[C@H](O[C@H]4CC[C@]5(C)C6CC[C@]7(C)[C@@H](C8=CC(=O)OC8)[C@@H](O)C[C@]7(O)[C@@H]6CC[C@@H]5C4)O[C@@H]3C)O[C@@H]2C)C[C@H](O)C1O (stereo partly drawn)	1.04
CC(=O)OCC(=O)[C@@]1(O)CCC2C3C[C@H](C)C4=CC(=O)C=CC4(C)C3[C@@H](O)CC21C (stereo partly drawn)	1.01
O=C(NCCCCO)OCC1c2ccccc2-c2ccccc21	1.02
NC(=O)c1ccc([N+](=O)[O-])cc1Cl	0.838
C[C@@H]1O[C@@H](O[C@H]2CC[C@]3(C=O)C4CC[C@]5(C)[C@@H](C6=CC(=O)OC6)CC[C@]5(O)C4CC[C@]3(O)C2)[C@H](O)[C@H](O)[C@H]1O (stereo partly drawn)	0.914
C/C=C(\C)C(=O)O[C@@H]1c2c(ccc3ccc(=O)oc23)OC(C)(C)[C@@H]1OC(C)=O	0.913
CO[C@H]1[C@H](O)[C@@H](O[C@H]2CC[C@]3(C=O)C4CC[C@]5(C)[C@@H](C6=CC(=O)OC6)CC[C@]5(O)C4CC[C@@H]3C2)O[C@@H](C)[C@@H]1O (stereo partly drawn)	0.972

stdin: Provide only the value of recorded normalized growth for C[C@H]1O[C@@H](O[C@H]2[C@@H](O)C[C@H](O[C@H]3[C@@H](O)C[C@H](O[C@H]4CC[C@]5(C)C6C[C@@H](O)[C@]7(C)[C@@H](C8=CC(=O)OC8)CC[C@]7(O)C6CC[C@@H]5C4)O[C@@H]3C)O[C@@H]2C)C[C@H](O)[C@@H]1O (stereo partly drawn)
stdout: 0.984

stdin: Provide only the value of recorded normalized growth for c1ccc(-c2ncc3ccccn23)cc1
stdout: 0.926

stdin: Provide only the value of recorded normalized growth for C[C@]12CCC3C(CC[C@]4(O)C[C@@H](O)CC[C@]34C=O)[C@@]1(O)CCC2C1=CC(=O)OC1 (stereo partly drawn)
stdout: 0.918

stdin: Provide only the value of recorded normalized growth for O=C(O)C1CC(=O)N(Cc2ccccc2Cl)C1 (stereo not drawn)
stdout: 1.01

stdin: Provide only the value of recorded normalized growth for O=[N+]([O-])c1cnc2ccccn12
stdout: 1.09
